target: T1, mucin domain-deleted Sudan GP (GPdMuc) (Sudan virus (SUDV), UniProt Q7T9D9 33-632); assay: BLI competition on Sudan GPdMuc (lower table); competitor 16F6
T1 construct: also called Sudan GPdMuc; GP(S)dMuc
Recorded Metric: % inhibition of binding (%)
The reply should contain only the number, in %.

Per the record, antibody 233S (antibody, V domains shown) VH: EVQLVESGGGLGQPGGSLRLSCAASGFKFKIFGMNWVRQAPGKGLEWVSYISSRSSIIYYADSVKGRFTISRDDATNSLFLQMNSLRDEDTAMYYCVRDYNLIDFVWGSLFDYWGQGILVTVSS VL: AIRMTQSPSSLSASTGDSVTITCRASQNIASYLAWYQQIPGKAPKLLIYVASTLQSGVPSRFSGSGSGTDFTLTISSLQSEDFATYYCQQYYRYPPTFGQGTKVEIK has % inhibition of binding of 22.9

Ref: patent US20260209316A1
